Entries and their measured microsomal CLint at 1 μM follow.
assay: Liver microsomal stability (HLM); assay type: in vitro ADME; settings: human, liver microsomes, human liver microsomes 0.5 mg/mL, 1 μM compound, NADPH

Would you please look over these solved cases?
So what's the measured microsomal CLint at 1 μM for this one? COc1cc(Cn2c(=O)ccc3c(C)nc(-c4c(OC)ncnc4C4CC4)nc32)ccc1-c1nc(C(F)(F)F)cn1C1CC1
< 10 µL/min/mg

Here is the next molecule: COc1ncnc(C2CC2)c1-c1ncc2cc(-c3ncccn3)c(=O)n(Cc3ccc(-c4nc(C(F)(F)F)cn4C4CC4)cc3)c2n1
< 10 µL/min/mg

Here is the next molecule: COc1ncnc(C2CC2)c1-c1ncc2cc(-c3cnn(C)c3)c(=O)n(Cc3ccc(-c4nc(C(F)(F)F)cn4C4CC4)cc3)c2n1
< 10 µL/min/mg

New cases:
So what's the measured microsomal CLint at 1 μM for this one? COc1ncnc(C2CC2)c1-c1ncc2cc(-c3ncn(C)n3)c(=O)n(Cc3ccc(-c4nc(C(F)(F)F)cn4C4CC4)cc3)c2n1
< 10 µL/min/mg

Here is the next molecule: COc1ncnc(C2CC2)c1-c1ncc2cc(-c3cnn(C)n3)c(=O)n(Cc3ccc(-c4nc(C(F)(F)F)cn4C4CC4)cc3)c2n1
< 10 µL/min/mg

Here is the next molecule: COc1ncnc(C2CC2)c1-c1ncc2ccc(=O)n(Cc3ccc(-c4nc(C(F)(F)F)cn4C4COC4)cc3)c2n1
10 to 50 µL/min/mg

###

Entries and their measured solubility at 2 h follow.
assay: Solubility in FaSSIF (Fasted State Simulated Intestinal Fluid); assay type: physicochemical; conditions: kinetic from dmso stock, FaSSIF pH 6.5, 25° C.

Would you please look over these solved cases?
So what's the measured solubility at 2 h for this one? COc1cc(Cn2c(=O)ccc3cnc(-c4c(OC)ncnc4C4CC4)nc32)ccc1-c1nc(C(F)(F)F)cn1C1CC1
10 to 100 µM

Here is the next molecule: COc1ncnc(C2CC2)c1-c1ncc2cc(-c3cnn(C4CN(C)C4)c3)c(=O)n(Cc3ccc(-c4nc(C(F)(F)F)cn4C4CC4)cc3)c2n1
≥ 100 µM

Here is the next molecule: COc1ncnc(C2CC2)c1-c1ncc2cc(-c3ncccn3)c(=O)n(Cc3ccc(-c4nc(C(F)(F)F)cn4C4CC4)cc3)c2n1
≥ 100 µM

Here is the next molecule: COc1cc(Cn2c(=O)ccc3cnc(-c4c(OC)ncnc4C4CC4)nc32)cc(F)c1-c1nc(C(F)(F)F)cn1C1CC1
≥ 100 µM

Here is the next molecule: COc1ncnc(C2CC2)c1-c1ncc2ccc(=O)n(Cc3ccc(-n4nc(C(F)(F)F)cc4C)cc3)c2n1
≥ 100 µM

Here is the next molecule: COc1ncnc(C2CC2)c1-c1ncc2cc(-c3cnn(CCO)c3)c(=O)n(Cc3ccc(-c4nc(C(F)(F)F)cn4C4CC4)cc3)c2n1
≥ 100 µM

New cases:
So what's the measured solubility at 2 h for this one? COc1ncnc(C2CC2)c1-c1ncc2cc(C3CCN(C)CC3)c(=O)n(Cc3ccc(-n4nc(C(F)(F)F)cc4C)cc3)c2n1
≥ 100 µM

Here is the next molecule: COc1ncnc(C2CC2)c1-c1ncc2cc(-c3c(C)noc3C)c(=O)n(Cc3ccc(-c4nc(C(F)(F)F)cn4C4CC4)cc3)c2n1
10 to 100 µM

Here is the next molecule: COc1cc(Cn2c(=O)ccc3c(C)nc(-c4c(OC)ncnc4C4CC4)nc32)ccc1-c1nc(C(F)(F)F)cn1C1CC1
≥ 100 µM

Here is the next molecule: COc1ncnc(C2CC2)c1-c1ncc2cc(-c3cn(C)c(C)n3)c(=O)n(Cc3ccc(-c4nc(C(F)(F)F)cn4C4CC4)cc3)c2n1
< 10 µM

Here is the next molecule: COc1ncnc(C2CC2)c1-c1nc(C)c2cc(C3CCN(C)CC3)c(=O)n(Cc3ccc(-c4nc(C(F)(F)F)cn4C4CC4)cc3)c2n1
≥ 100 µM

Here is the next molecule: COc1ncnc(C2CC2)c1-c1ncc2cc(-c3cnc(C)nc3)c(=O)n(Cc3ccc(-c4nc(C(F)(F)F)cn4C4CC4)cc3)c2n1
≥ 100 µM

Here is the next molecule: COc1cc(Cn2c(=O)cnc3cnc(-c4c(OC)ncnc4C4CC4)nc32)ccc1-n1nc(C(F)(F)F)cc1OC
≥ 100 µM

###

assay: Solubility in FaSSIF (Fasted State Simulated Intestinal Fluid); format: physicochemical; details: kinetic from dmso stock, FaSSIF pH 6.5, 25° C.
Entries and their measured solubility at 2 h follow.

Would you please look over these solved cases?
So what's the measured solubility at 2 h for this one? COc1ncnc(C2CC2)c1-c1ncc2cc(-c3cnn(C)n3)c(=O)n(Cc3ccc(-c4nc(C(F)(F)F)cn4C4CC4)cc3)c2n1 [Compound I-151]
10 to 100 µM

Here is the next compound: COc1ncnc(C2CC2)c1-c1nc(C)c2ccc(=O)n(Cc3ccc(-c4nc(C(F)(F)F)cn4C4CC4)cc3)c2n1 [Compound I-135]
≥ 100 µM

Here is the next compound: COc1cc(Cn2c(=O)ccc3cnc(-c4c(OC)ncnc4C4CC4)nc32)cc(F)c1-c1nc(C(F)(F)F)cn1C(C)C [Compound I-22]
≥ 100 µM

Here is the next compound: COCCN1CCC(c2cc3cnc(-c4c(OC)ncnc4C4CC4)nc3n(Cc3ccc(-c4nc(C(F)(F)F)cn4C4CC4)cc3)c2=O)CC1 [Compound I-120]
≥ 100 µM

Here is the next compound: COc1ncnc(C2CC2)c1-c1ncc2cc(-c3cnn(C)c3)c(=O)n(Cc3ccc(-c4nc(C(F)(F)F)cn4C4CC4)cc3)c2n1 [Compound I-127]
≥ 100 µM

New cases:
So what's the measured solubility at 2 h for this one? COc1ncnc(C2CC2)c1-c1nc(C)c2cc(-c3cnn(C)c3)c(=O)n(Cc3ccc(-c4nc(C(F)(F)F)cn4C4CC4)cc3)c2n1 [Compound I-148]
≥ 100 µM

Here is the next compound: COc1ncnc(C2CC2)c1-c1ncc2cc(-c3c(C)nn(C)c3C)c(=O)n(Cc3ccc(-c4nc(C(F)(F)F)cn4C4CC4)cc3)c2n1 [Compound I-129]
≥ 100 µM

Here is the next compound: COc1ncnc(C2CC2)c1-c1ncc2cc(-c3cnn(C4CCN(C)CC4)c3)c(=O)n(Cc3ccc(-c4nc(C(F)(F)F)cn4C4CC4)cc3)c2n1 [Compound I-143]
≥ 100 µM

Here is the next compound: COc1ncnc(C2CC2)c1-c1ncc2ccc(=O)n(Cc3ccc(-n4nc(C(F)(F)F)cc4OC)cc3)c2n1 [Compound I-110]
< 10 µM

Here is the next compound: COc1ncnc(C2CC2)c1-c1ncc2ccc(=O)n(Cc3ccc(-c4nc(C(F)(F)F)cn4C(C)C)cc3)c2n1 [Compound I-4]
< 10 µM

Here is the next compound: COc1cc(Cn2c(=O)cnc3cnc(-c4c(OC)ncnc4C4CC4)nc32)cc(F)c1-c1nc(C(F)(F)F)cn1C(C)C [Compound I-107]
≥ 100 µM

Here is the next compound: COc1ncnc(C2CC2)c1-c1ncc2cc(-c3ncnn3C)c(=O)n(Cc3ccc(-c4nc(C(F)(F)F)cn4C(C)C)cc3)c2n1 [Compound I-168]
10 to 100 µM

Here is the next compound: COc1ncnc(C2CC2)c1-c1ncc2cc(-c3cnn(C)c3)c(=O)n(Cc3ccc(-c4nc(C(F)(F)F)cn4C(C)C)cc3)c2n1 [Compound I-138]
≥ 100 µM

Here is the next compound: COc1ncnc(C2CC2)c1-c1ncc2cc(-c3ncnn3C)c(=O)n(Cc3ccc(-c4nc(C(F)(F)F)cn4C4CC4)cc3)c2n1 [Compound I-156]
≥ 100 µM

Here is the next compound: COc1cc(Cn2c(=O)ccc3cnc(-c4c(OC)ncnc4C4CC4)nc32)ccc1-n1nc(C(F)(F)F)cc1OC [Compound I-122]
10 to 100 µM

Here is the next compound: COc1ncnc(C2CC2)c1-c1ncc2ccc(=O)n(Cc3ccc(-c4cccc(C(F)(F)F)n4)cc3)c2n1 [Compound I-36]
< 10 µM

Here is the next compound: COc1cc(Cn2c(=O)cnc3cnc(-c4c(OC)ncnc4C4CC4)nc32)ccc1-c1nc(C(F)(F)F)cn1C1CC1 [Compound I-125]
≥ 100 µM

Here is the next compound: COc1ncnc(C2CC2)c1-c1ncc2cc(C3=CCN(C)CC3)c(=O)n(Cc3ccc(-c4nc(C(F)(F)F)cn4C(C)C)cc3)c2n1 [Compound I-106]
≥ 100 µM

###

Entries and their measured microsomal CLint at 1 μM follow.
test: Liver microsomal stability (HLM); type: in vitro ADME; details: human, liver microsomes, human liver microsomes 0.5 mg/mL, 1 μM compound, NADPH

So what's the measured microsomal CLint at 1 μM for this one? COc1ncnc(C2CC2)c1-c1ncc2ccc(=O)n(Cc3ccc(-c4cccc(C(F)(F)F)n4)cc3)c2n1 [Compound I-36]
10 to 50 µL/min/mg

Here is the next molecule: COc1ncnc(C2CC2)c1-c1ncc2cc(C3CCN(C)CC3)c(=O)n(Cc3ccc(-c4nc(C(F)(F)F)cn4C4CC4)cc3)c2n1 [Compound I-111]
< 10 µL/min/mg

Here is the next molecule: COc1cc(Cn2c(=O)cnc3cnc(-c4c(OC)ncnc4C4CC4)nc32)ccc1-n1nc(C(F)(F)F)cc1OC [Compound I-123]
10 to 50 µL/min/mg

Here is the next molecule: COc1ncnc(C2CC2)c1-c1ncc2ccc(=O)n(Cc3ccc(-c4nc(C(F)(F)F)cn4C)cc3)c2n1 [Compound I-1]
10 to 50 µL/min/mg

Here is the next molecule: COc1ncnc(OC)c1-c1ncc2ccc(=O)n(Cc3ccc(-c4nc(C(F)(F)F)cn4C4CC4)cc3)c2n1 [Compound I-102]
10 to 50 µL/min/mg

Here is the next molecule: O=c1ccc2cnc(-c3c(OC(F)F)ncnc3C3CC3)nc2n1Cc1ccc(-c2nc(C(F)(F)F)cn2C2CC2)cc1 [Compound I-103]
< 10 µL/min/mg

Here is the next molecule: COc1cc(Cn2c(=O)ccc3cnc(-c4c(OC)ncnc4C4CC4)nc32)ccc1-c1nc(C(F)(F)F)cn1C1CC1 [Compound I-124]
< 10 µL/min/mg

src = patent US20240092779A1
